# protocol-text: Ketose 3-epimerase activity ratio (T70/T50) at reaction temperature of 70° C. to 50° C.
# Type: biochemical
# test-conditions: crude recombinant enzyme; ratio of activity at 70° C. to activity at 50° C., 10 min reaction

{"molecule": "Ketose 3-epimerase mutant 5: amino acid-substituted mutant of SEQ ID NO: 1 (protein, Arthrobacter histidinolovorans) MKIGCHGLVWTGRFDAEGIRYSVQKTKEAGFDLIEFPLMDPFSFDVATAKSALAEHGLSVSASLGLSEATDVSSEDPAIVKAGEELLNRALDVLAELGATDFCGVIYSAMKKYMEPATEQGLSNSKAAIGRVVDRAAGLGINVSLEVVNRYETNVLNTGRQALSYLSDVKRPNLGVHLDTYHMNIEESDMFSPVLDTAEVLKYVHIGESHRGYLGTGSVDFDNFFKALGRIGYDGPVVFESFSSAVVAPDLSRMLGIWRNLWADNEELGAHANAFIRDKLTAIKTIELH", "T70/T50": 2.07}
{"molecule": "Ketose 3-epimerase mutant 1: amino acid-substituted mutant of SEQ ID NO: 1 (protein, Arthrobacter histidinolovorans) MKIGCHGLVWTGRFDAEGIRYSVQKTKEAGFDLIEFPLMDPFSFDVATAKSALAEHGLSVSASLGLSEATDVSSEDPAIVKAGEELLNRALDVLAELGATEFCGVIYSAMKKYMEPATEQGLSNSKAAIGRVVDRAAGLGINVSLEVVNRYETNVLNTGRQALSYLSDVKRPNLGVHLDTYHMNIEESDMFSPVLDTAEVLKYVHIGESHRGYLGTGNVDFDNFFKALGRIGYDGPVVFESFSSAVVAPDLSRMLGIWRNLWADNEELGAHANAFIRDKLTAIKTIELH", "T70/T50": 2.37}
